molecular target: E2F1; conditions: ASO; further: test concentration or dose not given here
These antisense oligonucleotides have a phosphorothioate backbone; sugars and methylation of C are not fully specified.
Documented remaining target (mRNA or protein) (fraction of control) across a set of sequences
Hey, just send me the number, nothing else.

> print(dat)
               seq.text  assay.value
1  CGATCGGGCCTTGTTTGCTC         0.72

Provide the documented remaining target (mRNA or protein) (fraction of control) with E2F1 as the system for AAGTGGTAGTCGAGGGCCTC
0.77

What about this sequence? GGCCGCGGCGCACTGGGTGT
0.79

What about this sequence? GGCTTGCTCAGCCTCCTAGC
0.17

* * *

Documented remaining target (mRNA or protein) (fraction of control) across a set of sequences
target: TFRC; details: ASO
These antisense oligonucleotides have a phosphorothioate backbone; sugars and methylation of C are not fully specified.
Hey, just send me the number, nothing else.

> print(dat)
             seq.text  assay.value
1  GAAGCCCGCACTCACACT          0.8
2  CACAGCAATAGTCCCATA         0.67
3  CTGGCTCCTCCCTCACTG         0.75
4  ACTGACCAGCGACCTCTG         0.58
5  AGAGGCAGTTCCCATTAC         0.46
6  CTCTGGAGATTGTCTGGA         0.76
7  CTGAAGAGACCCTATGAA         0.97
8  GTTGTTAGTCTGGAAGTA          0.9

Turning now to a further sequence:
Data request, read-out remaining target (mRNA or protein) (fraction of control), for CTGTGCTGTCCAGTTTCT
0.9

* * *

molecular target: GNAI3; settings: ASO
These antisense oligonucleotides have a phosphorothioate backbone; sugars and methylation of C are not fully specified.
MEASURED ATTRIBUTE: remaining target (mRNA or protein) (fraction of control)
Hey, just send me the number, nothing else.

> print(dat)
             seq.text  assay.value
1  ACACTGTAGTAACTTTCA          0.6

Provide the documented remaining target (mRNA or protein) (fraction of control) with GNAI3 as the system for TAAAGAGTGCTAAGATTC
0.72

What about this sequence? CTCAACACTCCACACTGT
0.9

What about this sequence? TAATTGCTGTCACTCCCT
0.65

* * *

molecular target: SMAD1; settings: ASO
These antisense oligonucleotides have a phosphorothioate backbone; sugars and methylation of C are not fully specified.
MEASURED ATTRIBUTE: remaining target (mRNA or protein) (fraction of control)

Solved cases below.
> print(dat)
              seq.text  measurement.target  assay.value
 1  CAGATGAAATAGGATTAT               SMAD1         0.55
 2  TGGATATGGTGAAATAAA               SMAD1         0.83
 3  TGCTAGTAACATCCTGGC               SMAD1         0.25
 4  GTAGGTGCTGCTGCTGCT               SMAD1         0.49
 5  ACAGTAGTAGGATGAAAT               SMAD1         0.41
 6  ACATTCATAATGACAGCA               SMAD1         0.59
 7  GAGCCGCTCGGCCTCTCC               SMAD1         0.23
 8  TTTGTCCTAAGTTACGGA               SMAD1         0.64
 9  TTTACAGAGAAGTCTCTT               SMAD1          ≥ 1
10  GCTGGACTTGTAAAGGAA               SMAD1         0.57

Data request, read-out remaining target (mRNA or protein) (fraction of control), for CTGAAGATCGGGCCAGCG
0.52

What about this sequence? CCAGTCAGCACCGGGTTG
0.8

What about this sequence? ATTGATCTGGTCGCGCTG
0.69

What about this sequence? CCTCCACTCCTCAGCTGC
0.5

What about this sequence? AGCATTCCAGTGGTTTTA
0.31

What about this sequence? TAACATTGGAGAGCAGCC
0.29

What about this sequence? AGTGAGGAAACGGGTGGC
0.28
